Data provenance is PubChem BioAssay.

Reported values of composite z-score for individual entries
Measurement Target: Fibroblast growth factor 10 (Homo sapiens)
Test Name: FGF10 binders on small-molecule microarrays, primary screen, biochemical, small-molecule microarray, 635 nm fluorescence (AID 1102)
Particulars: FGF10 binding, fluorescence 635 nm, higher = more signal
Keep it simple and answer with nothing but the number.

Solved cases (5 shown):
Compound: C=C(COC)C(=O)CC[C@H](OC(=O)c1ccccc1-c1ccccc1C(=O)O)c1cccc(OCCO)c1
composite z-score: 1.71

Compound: COc1cccc([C@H]2N[C@H](C(=O)O)CC[C@@H]2C)c1
composite z-score: -0.401

Compound: Cc1ccc(S(=O)(=O)N2[C@@H](c3ccccc3)C(C(=O)O)=CC[C@H]2c2ccccc2)cc1
composite z-score: 0.476

Compound: CSCC[C@@H]1NC(=O)CC=C[C@@H](C)COC(=O)[C@H](CCSC)NC(=O)CC=C[C@@H](C)COC1=O
composite z-score: 0.435

Compound: CN1C(=O)C2C=CC(C(O)c3ccc(N(C)C)cc3)N(Nc3ccc([N+](=O)[O-])cc3[N+](=O)[O-])C2C1=O (stereo unspecified)
composite z-score: 0.887

Requested read-out composite z-score, target or system Fibroblast growth factor 10 (Homo sapiens), entry COC(=O)[C@@]1(Cc2ccc(OC)cc2)[C@H]2c3cc(C(=O)N(C)C)n(CCc4ccc(OC)c(Br)c4)c3C[C@H]2CN1C(=O)c1ccccc1
0.77

---

Measurement Target: Luciferin 4-monooxygenase (Photinus pyralis)
Test Name: firefly luciferase enzyme inhibitors, primary screen, biochemical, luminescence, purified enzyme, 2006 set (AID 1141);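 note: cell-free assay with purified firefly luciferase at 100 ng per well in PBS; test concentration not given here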
Particulars: SteadyGlo luminescence, 30 min, higher = more signal, called active from +8 up or from −8 down
Returns label 1 if the recorded z-score is greater than or equal to -0.5, and label 0 otherwise.

Answered examples (5):
Compound: CCCNC(=O)[C@@H]1c2ccccc2C(=O)N(C2CCCCC2)[C@H]1c1ccc(CO)cc1
Class Label: label 1
--
Compound: NC(=O)NCC#Cc1ccc2c(c1)[C@]1(C(=O)N2)[C@H](c2ccccc2OCCO)N2[C@H](c3ccccc3)[C@H](c3ccccc3)OC(=O)[C@H]2[C@@H]1C(=O)N1CCN(c2ncccn2)CC1
Class Label: label 0
--
Compound: CCCC=C(CCC)[C@@H](NS(=O)(=O)c1ccc(C(F)(F)F)cc1)c1ccc(-c2ccccc2)cc1
Class Label: label 1
--
Compound: CCN1C(C)=C(C(=O)OC)[C@@H](c2ccccc2)N2C(=O)[C@@]3(C(=O)OC)O[C@@]12[C@@H]1C(=O)CCC[C@@H]13
Class Label: label 0
--
Compound: CCOC(=O)C1=CC[C@@H](c2ccc(-c3ccc(OCc4ccccc4)cc3)c(OC)c2)N(S(=O)(=O)c2ccc(C)cc2)[C@H]1c1ccccc1
Class Label: label 0

Has CO[C@@H]1COC(=O)[C@H](C)NC(=O)CC=C[C@@H](C)[C@H](OC)COC(=O)[C@H](C)NC(=O)CC=C[C@H]1C a recorded z-score greater than or equal to -0.5?
label 0

Similarly, CO[C@H]1COC(=O)[C@@H](Cc2ccccc2)NC(=O)[C@@H](C)COC(=O)CC=C[C@@H]1C ?
label 0

Similarly, COc1ccc(NN2C(C(O)c3cc(OC)c(OC)c(OC)c3)C=CC3C(=O)N(C4CCCCC4)C(=O)C32)cc1 (stereo not given) ?
label 1

Similarly, C=C(CCCC)/C(=C/C[C@H](OC(=O)c1ccncc1)c1cccc(OCCO)c1)c1cc(C(=O)OC)ccc1OC ?
label 1

Similarly, C=CCC(OC(C)=O)[C@@H]1[C@@H](N(Cc2ccc(-c3ccccc3)cc2)C(=O)c2ccc(-c3ccccc3)cc2)c2cc(OCCCO)ccc2N1C(=O)Cc1ccc(OC)cc1 (stereo not given in full) ?
label 1

---

Tested on: Wnt5a (protein binding on small-molecule microarray)
Test Name: Wnt5a binders on small-molecule microarray, primary screen, biophysical, 635/667 nm fluorescence (AID 1142);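 note: fluorescence read at 667 nm with signal to noise per printed feature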
Particulars: 635 nm fluorescence, higher = more signal
Returns Fulfilled if the recorded composite z-score is greater than or equal to 0.3, and Not fulfilled otherwise.

Molecule: O=C1NC(=O)C2C1C=CC(C(O)C=Cc1ccc([N+](=O)[O-])cc1)N2Nc1ccccn1 (configuration not stated)
Class Label: Fulfilled

Has CC(=O)NCCCC[C@@H]1NC(=O)[C@@H]2C[C@H](C(=O)NCCCCCNC(=O)CS)[C@H](c3ccc(O)cc3)N2C1=O a recorded composite z-score greater than or equal to 0.3?
Fulfilled

Similarly, N#Cc1ccc(NN2C(C(O)CCc3ccccc3)C=CC3C(=O)N(c4ccccc4)C(=O)C32)cc1 (configuration not stated) ?
Not fulfilled

Similarly, COc1ccc(NN2C(C(O)c3cc(OC)c(OC)c(OC)c3)C=CC3C(=O)N(C4CCCCC4)C(=O)C32)cc1 (configuration not stated) ?
Fulfilled

Similarly, CSCC[C@@H]1NC(=O)CC=C[C@@H](C)COC(=O)[C@H](CCSC)NC(=O)CC=C[C@@H](C)COC1=O ?
Not fulfilled

Similarly, COC(=O)[C@@]1(Cc2ccccc2CN=[N+]=[N-])N=C(c2ccc(OCCCO)cc2)O[C@H]1c1ccccc1N=[N+]=[N-] ?
Fulfilled

Similarly, C=CCC(OC(C)=O)[C@@H]1[C@@H](N(Cc2ccc(-c3ccccc3)cc2)C(=O)c2ccc(-c3ccccc3)cc2)c2cc(OCCCO)ccc2N1C(=O)Cc1ccc(OC)cc1 (some centres not stated) ?
Not fulfilled

---

Reported values of composite z-score for individual entries
Measurement Target: Fibroblast growth factor 2 (Homo sapiens)
Test Name: FGF2 binders on small-molecule microarrays, primary screen, biochemical, small-molecule microarray, 635/667 nm fluorescence (AID 1133)
Particulars: small-molecule microarray binding, FGF2, fluorescence 635/667; higher = more signal
Keep it simple and answer with nothing but the number.

Solved cases (3 shown):
Structure String: O=C1C[C@@](C(=O)NC2CC2)(c2ccc([N+](=O)[O-])cc2)[C@@H](c2ccc(CO)cc2I)N1CC12CC3CC(CC(C3)C1)C2
Meas Value: 0.718
--
Structure String: C/C(=N\O)C(=O)NCCCCCNC(=O)OCc1ccccc1
Meas Value: 0.545
--
Structure String: O=C1O[C@H](c2ccccc2)[C@H](c2ccccc2)N2[C@H]1[C@@H](C(=O)NC[C@H](O)c1ccccc1)[C@]1(C(=O)Nc3ccc(C#CC4(O)CCCCCC4)cc31)[C@H]2c1ccc(OCCO)cc1
Meas Value: 1.04

Requested read-out composite z-score, target or system Fibroblast growth factor 2 (Homo sapiens), entry C#C[C@H](O[Si](C#Cc1ccccc1)(C(C)C)C(C)C)c1ccccc1
-0.487

---

Reported values of z-score for individual entries
Test Name: E. coli DRC41 culture turbidity changes, primary screen, E. coli filamentation inducer project, strain DRC41, OD650, 48 h (AID 1152);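 note: E. coli MC1000 strain DRC41 lacking acrAB efflux pump and sulA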
Particulars: E. coli DRC41 (acrAB sulA), higher = more signal, called active from +8 up or from −8 down
Keep it simple and answer with nothing but the number.

Solved cases (5 shown):
Structure String: [N-]=[N+]=NCc1ccccc1C[C@@]1(C(=O)O)N=C(c2ccc(OCCCO)cc2)O[C@@H]1c1ccccc1N=[N+]=[N-]
z-score: 0.051
--
Structure String: CC/C=C/C(=O)N(C[C@@H]1CCCO1)[C@@H]1CC(C(=O)NCCO)=C[C@H](Oc2c(I)cc(CO)cc2OC)[C@H]1O
z-score: 1.24
--
Structure String: CO[C@H]1COC(=O)[C@H](CCSC)NC(=O)CC=C[C@@H](C)COC(=O)[C@@H](OCc2ccccc2)C=C[C@@H]1C
z-score: -0.332
--
Structure String: CCCNC(=O)[C@@H]1c2ccccc2C(=O)N(C2CCCCC2)[C@H]1c1ccc(CO)cc1
z-score: -0.401
--
Structure String: COC(=O)[C@@]1(Cc2ccc(OC)cc2)[C@H]2c3cc(C(=O)N(C)C)n(Cc4ccc(C)c(F)c4F)c3C[C@H]2CN1C(=O)c1ccccc1
z-score: -1.37

Consider the additional compound presented here.
Entry COc1ccc([Si](C)(C)[C@@H]2[C@@H](CCO)O[C@]3(C(=O)N(Cc4ccccc4)c4ccccc43)[C@H]2C)cc1 : reported z-score = ?
1.25

---

Test Name: A549 cell viability effects, profiling panel, calcein-AM fluorescence, 48 h, basal (AID 1162); note: test concentration not given here
Particulars: higher = more signal
Measurement Kind: z-score
Keep it simple and answer with nothing but the number.

Structure String: COC(=O)c1c(CC[C@@H](CO)NC(=O)N[C@H](Cn2cc(-c3cncn3C)nn2)C(C)C)oc(C(C)=O)c1C(=O)OC
z-score: 0.128
--
Structure String: Cc1ccc(S(=O)(=O)N2[C@@H](c3ccccc3)C(C(=O)O)=CC[C@H]2c2ccccc2)cc1
z-score: -0.0225
--
Structure String: COC(=O)Cn1c(C(=O)N2CCCC2)cc2c1C[C@H]1CN(C(=O)c3ccccc3)[C@@](Cc3ccc(OC)cc3)(C(=O)OC)[C@@H]21
z-score: -0.643

Entry C[C@@H]1NC(=O)CC=C[C@@H](C)[C@@H]2C=C[C@H](O)[C@@H](COC(=O)[C@H](C)NC(=O)CC=C[C@@H](C)[C@@H]3C=C[C@H](O)[C@@H](COC1=O)O3)O2 : reported z-score = ?
0.362
